The measurements presented in this section are drawn from patent US9850256B2.

# Tested on: S. aureus A798
# method-notes: Bacterial growth minimal inhibitory concentration (microdilution, cation-adjusted Mueller-Hinton Broth)
# Type: cell-based, Staphylococcus aureus
# condition-notes: Staphylococcus aureus, A798; multiply-resistant strain (methicillin- and quinolone-resistant)
readout-kind: MIC (µg/mL)
One number for each entry, in µg/mL.

Check out these entries, answers already filled in.
1) O=C1COc2ccc(N3C[C@H](CCNCc4cccc(-c5cccc(OC6CCNC6)c5)c4)OC3=O)nc2N1 (mixture of isomers) [Example $103] :: 2
2) CN1CC[C@H](Oc2cccc(-c3cccc(CNCC[C@H]4CN(c5ccc6c(n5)NC(=O)CO6)C(=O)O4)c3)n2)C1 [Example $121] :: 0.25
3) CN1CC(Oc2cnnc(-c3cccc(CNCC[C@H]4CN(c5ccc6c(n5)NC(=O)CO6)C(=O)O4)c3)c2)C1 [Example $174] :: 2
4) COc1cc(OCCN)cc(-c2cccc(CNCC[C@H]3CN(c4ccc5c(n4)NC(=O)CO5)C(=O)O3)c2)n1 [Example $161] :: 0.5

For each of the molecules below, state MIC.
1. CN1CC[C@H](Oc2cncc(-c3cccc(CNCC[C@H]4CN(c5ccc6c(n5)NC(=O)CO6)C(=O)O4)n3)n2)C1 [Example $145]
2. CN1CC[C@H]1COc1cccc(-c2cccc(CNCC[C@H]3CN(c4ccc5c(n4)NC(=O)CO5)C(=O)O3)c2)c1 [Example $104]

Result:
2
1

// for each molecule in input: emit MIC
1. CC(C)N1CCC(Oc2cccc(-c3cccc(CNCC[C@H]4CN(c5ccc6c(n5)NC(=O)CO6)C(=O)O4)c3)n2)C1 (mixture of isomers) [Example $134]
2. NCCOc1cncc(-c2ccnc(CNCC[C@H]3CN(c4ccc5c(n4)NC(=O)CO5)C(=O)O3)c2)c1 [Example $159]

Result:
[0.5, 8]
